Target: Phosphodiesterase-5 enzyme (PDE 5) (Homo sapiens)
In plain terms, low IC50, meaning strictly below 20 nM, gives true (1), and everything else gives false (0).

[[record]]
molecule = "CCCc1nn(CC)c2c(=O)[nH]c(-c3cc(S(=O)(=O)Nc4ccncc4)ccc3OCC)nc12 [Example 36]"
label_value = "true (1)"

[[record]]
molecule = "CCOc1ccc(S(=O)(=O)NCc2ccccn2)cc1-c1nc2c(CC(C)C)nn(C)c2c(=O)[nH]1 [Example 51]"
label_value = "true (1)"

[[record]]
molecule = "CCCc1nn(C)c2c(=O)[nH]c(-c3cc(S(=O)(=O)NCc4cccnc4)ccc3OCC)nc12 [Example 47]"
label_value = "true (1)"

[[record]]
molecule = "CCOc1ccc(S(=O)(=O)NCC2CCN(CC)C2)cc1-c1nc2c(CC(C)C)nn(C)c2c(=O)[nH]1 (stereo not shown) [Example 66]"
label_value = "false (0)"

[[record]]
molecule = "CCCOc1ccc(S(=O)(=O)NCc2ccncc2)cc1-c1nc2c(CCC)nn(C)c2c(=O)[nH]1 [Example 44]"
label_value = "true (1)"

[[record]]
molecule = "CCCc1nn(CC)c2c(=O)[nH]c(-c3cc(S(=O)(=O)NCC4CCN(CC)C4)ccc3OCC)nc12 (stereo not shown) [Example 65]"
label_value = "false (0)"

[[record]]
molecule = "CCOc1ccc(S(=O)(=O)NCC2CCCN2C)cc1-c1nc2c(CC(C)C)nn(C)c2c(=O)[nH]1 (stereo not shown) [Example 58]"
label_value = "true (1)"

[[record]]
molecule = "CCCNS(=O)(=O)c1ccc(OCC)c(-c2nc3c(CCC)nn(C)c3c(=O)[nH]2)c1 [Example 7]"
label_value = "false (0)"

[[record]]
molecule = "CCCNS(=O)(=O)c1ccc(OCC)c(-c2nc3c(CCC)nn(CC)c3c(=O)[nH]2)c1 [Example 8]"
label_value = "false (0)"

[[record]]
molecule = "CCCc1nn(CC)c2c(=O)[nH]c(-c3cc(S(=O)(=O)NCCC4CCCN4C)ccc3OCC)nc12 (stereo not shown) [Example 69]"
label_value = "false (0)"

[[record]]
molecule = "CCOc1ccc(S(=O)(=O)NCc2ccncc2)cc1-c1nc2c(CC(C)C)nn(C)c2c(=O)[nH]1 [Example 46]"
label_value = "true (1)"

[[record]]
molecule = "CCOc1ccc(S(=O)(=O)NC2CCN(C)C2)cc1-c1nc2c(CC(C)C)nn(C)c2c(=O)[nH]1 (stereo not shown) [Example 54]"
label_value = "false (0)"

[[record]]
molecule = "CCCc1nn(C)c2c(=O)[nH]c(-c3cc(S(=O)(=O)NCC4CCN(CC)C4)ccc3OCC)nc12 (stereo not shown) [Example 63]"
label_value = "false (0)"

[[record]]
molecule = "CCCc1nn(C)c2c(=O)[nH]c(-c3cc(S(=O)(=O)NC4CC4)ccc3OCC)nc12 [Example 13]"
label_value = "false (0)"

[[record]]
molecule = "CCCCNS(=O)(=O)c1ccc(OCC)c(-c2nc3c(CCC)nn(C)c3c(=O)[nH]2)c1 [Example 9]"
label_value = "true (1)"


###

Measured IC50, listed per entry for reference.
Target: Phosphodiesterase-3 enzyme (PDE 3) (Oryctolagus cuniculus)
Sequence (G1ST54 1-1128): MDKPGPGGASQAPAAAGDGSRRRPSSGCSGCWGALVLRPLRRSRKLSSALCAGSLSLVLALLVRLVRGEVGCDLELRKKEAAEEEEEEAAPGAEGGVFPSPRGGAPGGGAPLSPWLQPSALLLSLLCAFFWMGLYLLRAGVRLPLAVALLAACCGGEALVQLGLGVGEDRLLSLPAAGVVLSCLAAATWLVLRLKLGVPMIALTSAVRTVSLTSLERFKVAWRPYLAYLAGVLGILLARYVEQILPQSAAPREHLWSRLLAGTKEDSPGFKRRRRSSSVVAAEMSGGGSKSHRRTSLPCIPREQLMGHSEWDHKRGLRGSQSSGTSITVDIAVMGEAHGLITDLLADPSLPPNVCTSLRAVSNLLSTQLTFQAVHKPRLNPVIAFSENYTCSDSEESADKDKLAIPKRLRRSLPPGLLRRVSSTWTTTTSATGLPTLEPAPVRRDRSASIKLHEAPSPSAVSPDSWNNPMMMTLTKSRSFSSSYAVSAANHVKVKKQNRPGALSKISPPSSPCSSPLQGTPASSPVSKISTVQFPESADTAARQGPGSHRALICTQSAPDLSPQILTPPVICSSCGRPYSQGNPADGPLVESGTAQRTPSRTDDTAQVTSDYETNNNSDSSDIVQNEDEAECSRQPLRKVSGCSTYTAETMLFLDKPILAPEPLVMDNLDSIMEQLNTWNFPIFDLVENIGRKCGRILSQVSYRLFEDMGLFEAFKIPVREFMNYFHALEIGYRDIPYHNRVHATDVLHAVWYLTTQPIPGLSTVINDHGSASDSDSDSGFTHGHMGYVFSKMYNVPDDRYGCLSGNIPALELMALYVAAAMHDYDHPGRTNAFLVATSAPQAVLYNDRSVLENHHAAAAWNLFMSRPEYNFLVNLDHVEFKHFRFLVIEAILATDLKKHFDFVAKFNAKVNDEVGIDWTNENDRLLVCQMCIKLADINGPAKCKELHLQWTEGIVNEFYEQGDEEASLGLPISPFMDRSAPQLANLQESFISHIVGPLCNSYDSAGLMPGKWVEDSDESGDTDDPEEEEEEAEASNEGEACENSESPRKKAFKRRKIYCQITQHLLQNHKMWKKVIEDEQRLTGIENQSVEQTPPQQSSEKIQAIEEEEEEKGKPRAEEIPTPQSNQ
READOUT: IC50

[[record]]
molecule = "CCCOc1ccc(S(=O)(=O)NCC2CCN(CC)C2)cc1-c1nc2c(CCC)nn(C)c2c(=O)[nH]1 (centres unmarked) [Example 64]"
target_of_assay = "Phosphodiesterase-3 enzyme (PDE 3) (Oryctolagus cuniculus)"
result = "134 µM"

[[record]]
molecule = "CCCOc1ccc(S(=O)(=O)NC2CCN(C)C2)cc1-c1nc2c(CCC)nn(C)c2c(=O)[nH]1 (centres unmarked) [Example 53]"
target_of_assay = "Phosphodiesterase-3 enzyme (PDE 3) (Oryctolagus cuniculus)"
result = "> 205 µM"

[[record]]
molecule = "CCOc1ccc(S(=O)(=O)NCCC2CCCN2C)cc1-c1nc2c(CC(C)C)nn(C)c2c(=O)[nH]1 (centres unmarked) [Example 70]"
target_of_assay = "Phosphodiesterase-3 enzyme (PDE 3) (Oryctolagus cuniculus)"
result = "61.5 µM"

[[record]]
molecule = "CCCOc1ccc(S(=O)(=O)NCC2CCCN2C)cc1-c1nc2c(CCC)nn(C)c2c(=O)[nH]1 (centres unmarked) [Example 56]"
target_of_assay = "Phosphodiesterase-3 enzyme (PDE 3) (Oryctolagus cuniculus)"
result = "> 199 µM"

[[record]]
molecule = "CCCCNS(=O)(=O)c1ccc(OCC)c(-c2nc3c(CCC)nn(C)c3c(=O)[nH]2)c1 [Example 9]"
target_of_assay = "Phosphodiesterase-3 enzyme (PDE 3) (Oryctolagus cuniculus)"
result = "> 223 µM"

[[record]]
molecule = "CCCOc1ccc(S(=O)(=O)NC(C)C)cc1-c1nc2c(CCC)nn(C)c2c(=O)[nH]1 [Example 3]"
target_of_assay = "Phosphodiesterase-3 enzyme (PDE 3) (Oryctolagus cuniculus)"
result = "> 223 µM"

[[record]]
molecule = "CCCc1nn(C)c2c(=O)[nH]c(-c3cc(S(=O)(=O)Nc4ccncc4)ccc3OCC)nc12 [Example 34]"
target_of_assay = "Phosphodiesterase-3 enzyme (PDE 3) (Oryctolagus cuniculus)"
result = "184 µM"

[[record]]
molecule = "CCOc1ccc(S(=O)(=O)NCc2cccnc2)cc1-c1nc2c(CC(C)C)nn(C)c2c(=O)[nH]1 [Example 48]"
target_of_assay = "Phosphodiesterase-3 enzyme (PDE 3) (Oryctolagus cuniculus)"
result = "33.6 µM"

